quantityName: melting point

Known melting point results, listed for orientation:
[
  {
    "compound": "Cc1nc(CS(C)(=O)=O)nc(OC(=O)NN2CCOCC2)c1C",
    "quantityName": "melting point",
    "result": "147 °C"
  },
  {
    "compound": "CN1CC(=O)Nc2cccc(Br)c2C1=O",
    "quantityName": "melting point",
    "result": "232 to 233 °C"
  },
  {
    "compound": "CCOC(=O)CN1C(=O)C(N=[N+]=[N-])CCc2ccc(OC)cc21 (configuration not stated)",
    "quantityName": "melting point",
    "result": "90 to 91 °C"
  }
]

stdin: Requested read-out: melting point. Entry: CCOc1ccc(C2C(C(=O)c3ccc(C(C)C)cc3)=C(O)C(=O)N2c2ccc(C)nn2)cn1 (configuration not stated)
stdout: 274 to 276 °C

stdin: Another: O=C(O)c1cn(C2CC2)c2cc(Cl)ncc2c1=O
stdout: 226 to 227 °C

stdin: Let us now turn to Nc1ncnc2c1ncn2Cc1oc2ccc(Br)cc2c(=O)c1-c1ccccc1
stdout: 207 to 209 °C

stdin: Please do the same for CC(=O)NNc1ccc([N+](=O)[O-])cn1 as well.
stdout: 226 to 227 °C

stdin: Entry COC(=O)c1cc(C(F)(F)F)cc(OCc2ccccc2)c1OCc1ccccc1 please
stdout: 78 to 79 °C

* * *

melting point: recorded values

Please review the entries below; each comes with its answer.
[
  {
    "compound": "Cc1nc(N)nc(N)c1N1CCN(c2ccc(C(F)(F)F)cc2)CC1",
    "melting point": "255 to 258 °C"
  },
  {
    "compound": "COc1ccccc1C1(N[C@H](CO)c2ccccc2)C(=O)Nc2ccc(Cl)cc21 (some centres undefined)",
    "melting point": "172 to 173 °C"
  },
  {
    "compound": "CC(C)(Cn1c(N)nc2c(N)nc3ccccc3c21)NS(C)(=O)=O",
    "melting point": "> 230 °C"
  }
]

// below: melting point requested for another compound
stdin: Reported melting point for Cc1cc(C)nc(OC(C(=O)O)C(O/C=C/Cc2ccccc2)(c2ccccc2)c2ccccc2)n1 (centres undefined) : what is it?
stdout: 128 to 133 °C

* * *

melting point overview

Answered examples (6):
[
  {
    "compound": "CCOC(=O)c1ccc(/C=C(\\C)c2ccc3c(c2)C(C)(C)CCCC3)cc1",
    "melting point": "69 to 70 °C"
  },
  {
    "compound": "N=C(N)c1ccc2cc(OC(=O)C3CC3)ccc2c1",
    "melting point": "214 to 217 °C"
  },
  {
    "compound": "COC(=O)C1=C(C(=O)OC)C2(c3ccc(Cl)cc3)C=CC1O2 (centres undefined)",
    "melting point": "84 °C"
  },
  {
    "compound": "C=C(CN(C)C)C(O)c1ncc2c(c1O)COC2c1ccccc1 (centres undefined)",
    "melting point": "210 to 215 °C"
  },
  {
    "compound": "COC(=O)C(=O)c1ccc(OCCOc2ccc(Cl)cc2)cc1",
    "melting point": "103 to 105 °C"
  },
  {
    "compound": "COc1cc2c(Nc3ccc(Sc4nccn4C)c(Cl)c3)c(C#N)cnc2cc1OCCN1CCC(N2CCCC2)CC1",
    "melting point": "127 to 130 °C"
  }
]

Then there is this compound:
stdin: What value of melting point has been reported for the following compound? COc1ccccc1Nc1c(C(=O)c2ccccc2)cnc2c(OC)cccc12
stdout: 200 to 202 °C

* * *

quantityName: melting point

[
  {
    "compound": "COc1ccc(-n2nc(Sc3cc(Cl)cc(Cl)c3)c(C)c(C#N)c2=O)cc1",
    "melting point": "195 to 197 °C"
  },
  {
    "compound": "CNc1nc(O)nc2c(Cl)cc(OC)c(OC)c12",
    "melting point": "219 to 221 °C"
  },
  {
    "compound": "CC(C)C(C#N)C(=O)NC(N)=O (stereo not given)",
    "melting point": "173 to 174 °C"
  }
]

stdin: Give the measured melting point of O=C(NCc1ccccc1)Nc1nnc(-c2ccc(CN3CCCCCC3)s2)s1 .
stdout: 232 to 233 °C

stdin: // repeat for CSc1nc(N2CCc3ccccc3CC2)c(C#N)c2nncn12 and report
stdout: > 200 °C

stdin: Try this compound too: NC(=O)c1c(C(F)(F)F)ccc(Cl)c1Cl
stdout: 118 to 120 °C

stdin: Please give the result for CCOc1ccc(-c2nc(-c3ccc(OCC(=O)OC)c(C(=O)OC)c3)cs2)cc1OCC too.
stdout: 96 to 97 °C

stdin: Also need CN(C)C=Nc1nc(CN2CCN(C(c3ccccc3)c3ccccc3)CC2)cs1 , thanks.
stdout: 148 to 150 °C

stdin: Continue with Cc1cc(Nc2cnc(C(=O)N(C)CCO)c(Nc3ccc(Cl)cc3)n2)n[nH]1
stdout: 191 to 192 °C

stdin: What would you report for CC(=O)c1sc(N2CCN(Cc3ccc(C(F)(F)F)cc3)C2=O)nc1C ?
stdout: 141 to 142 °C

* * *

quantityName: melting point

Reference set, count: 6
[
  {
    "molecule": "COCc1cc2c([N+](=O)[O-])cccc2cn1",
    "melting point": "91 °C"
  },
  {
    "molecule": "O=C(COc1ccc(C(=O)C=CC(=O)N2CCCCC2)c(O)c1)Nc1nc2ccccc2s1",
    "melting point": "207 to 210 °C"
  },
  {
    "molecule": "O=C1C(=O)c2ccccc2C2=C1SCC1(CCN(CCCOc3ccccc3)CC1)O2",
    "melting point": "127 to 129 °C"
  },
  {
    "molecule": "CCCCC1(N(C)C)CCC(c2[nH]c3ccc(F)cc3c2C)(c2[nH]c3ccccc3c2CCNC(=O)Nc2ccccc2)CC1 (configuration not stated)",
    "melting point": "127 to 132 °C"
  },
  {
    "molecule": "CC(=O)Nc1c(C)c(C)c2c(c1[N+](=O)[O-])CC(C)(C)O2",
    "melting point": "203 °C"
  },
  {
    "molecule": "COc1ccc2c3cc(C(=O)N4CCCCC4)ccc3n(CC3CCCCC3)c2c1",
    "melting point": "91 to 92 °C"
  }
]

Now for another entry.
stdin: Request the reported melting point associated with CC(C)n1nc(-c2sc(C(=O)NCC(N)=O)nc2-c2ccccc2)ccc1=O
stdout: 248 to 249 °C

* * *

Reported melting point values for a set of molecules

// solved cases for melting point follow
[
  {
    "compoundStructure": "COC(=O)c1c[nH]c(-c2ccc(OC[C@@H](O)CNC(C)(C)C)cc2)n1",
    "quantityName": "melting point",
    "result": "168 to 172 °C"
  },
  {
    "compoundStructure": "COc1cccc([C@H]2CCCN2[S@@](=O)C(C)(C)C)c1",
    "quantityName": "melting point",
    "result": "45 to 50 °C"
  },
  {
    "compoundStructure": "Cc1cc(C)cc(C#N)c1",
    "quantityName": "melting point",
    "result": "51 to 52 °C"
  }
]

Next molecule, melting point to be filled in.
stdin: Looking for the measured melting point of O=S(=O)(Cc1ccc(Cc2ccc(NC3=NCCN3)cc2)cc1)NCc1ccccc1 , can you help?
stdout: 115 to 118 °C

* * *

# maps each entry to its melting point

[
  {
    "compoundStructure": "CCCC(=O)NS(=O)(=O)c1cccc(-c2cccc(-c3cc(-c4ccc(C(F)(F)F)cc4)cc(C)n3)n2)c1",
    "quantityName": "melting point",
    "result": "188 °C"
  }
]

stdin: melting point lookup needed for CC/C(=C\C#N)c1ccc2c(c1)C(CC)(CC)OC(=O)N2 , thanks.
stdout: 135 to 136 °C

stdin: Again, but for CCOC(=O)c1cc(=O)c2cc(O)ccc2s1
stdout: 217 to 218 °C

* * *

quantityName: melting point

// below: answered molecules
[
  {
    "molecule": "OCC1=C(c2cc3ccccc3s2)N2CCN=C2S1",
    "result": "138 to 140 °C"
  },
  {
    "molecule": "BrCC=C(c1ccc(I)cc1)c1ccc(I)cc1",
    "result": "105 to 109 °C"
  },
  {
    "molecule": "O=C1c2ccccc2C(=O)N1OCc1cccc(C(F)(F)F)c1",
    "result": "106 to 108 °C"
  },
  {
    "molecule": "CCC(CN1CCCC1)C(=O)c1cc(-c2ccccc2)no1 (stereo not given)",
    "result": "68 to 69 °C"
  }
]

Moving on to another molecule below.
stdin: Which measured melting point value corresponds to CC(NC(=O)C(C)(C(C)C)C(C)C)c1ccco1 (stereo not given) ?
stdout: 57 to 60 °C
